# METHOD SUMMARY: Inhibition of gamma-secretase
Mark Y for IC50 under 600 nM, N if at or over.

| COMPOUND | LABEL CLASS |
| --- | --- |
| O=C1c2[nH]ncc2C2CCCC1N2S(=O)(=O)c1ccc(Cl)cc1 (stereo unspecified) | Y |
| N[C@H]1C[C@H]2CCC[C@@H](C1)N2S(=O)(=O)c1ccc(Cl)cc1 | N |
| O=S(=O)(c1ccc(Cl)cc1)N1C2CCCC1C(F)(F)c1[nH]ncc12 (stereo unspecified) | Y |
| O=S(=O)(c1ccc(Cl)cc1)N1C2CCCC1c1cnoc1C2 (stereo unspecified) | N |

## Task Say whether its IC50 is strictly beneath 600 nM. Entry: Cc1n[nH]c2c1C1CCCC(C2)N1S(=O)(=O)c1ccc(Cl)cc1 (stereo unspecified)
## Result Y

## Task Please state whether IC50 is below 600 nM for Cn1cc2c(n1)CC1CCCC2N1S(=O)(=O)c1ccc(Cl)cc1 (stereo unspecified)
## Result N

## Task Consider O=S(=O)(c1ccc(Cl)cc1)N1C2CCCC1CCC2 . Does its IC50 lie strictly below 600 nM?
## Result N

## Task Is IC50 strictly under 600 nM for the entry CSc1n[nH]c2c1C1CCCC(C2)N1S(=O)(=O)c1ccc(Cl)cc1 (stereo unspecified) ?
## Result Y

## Task Report whether reported IC50 is lower than 600 nM (strictly) for CC(=O)NC1CC2CCCC(C1)N2S(=O)(=O)c1ccc(Cl)cc1 (racemic)
## Result N

## Task Record COc1cc(CN([C@@H]2CCCCNC2=O)S(=O)(=O)c2ccc(Cl)cc2)ccc1OCCc1scnc1C : is its IC50 strictly below 600 nM?
## Result N

## Task Determine if CN(C)c1n[nH]c2c1C1CCCC(C2)N1S(=O)(=O)c1ccc(Cl)cc1 (stereo unspecified) shows IC50 strictly lower than 600 nM.
## Result N
